Tgt: D-VEGF, synthetic D-protein form of VEGF-A(8-109) (Homo sapiens (Human)) (UniProt P15692)
Sequence (P15692 214-315 limits assumed, form in doubt): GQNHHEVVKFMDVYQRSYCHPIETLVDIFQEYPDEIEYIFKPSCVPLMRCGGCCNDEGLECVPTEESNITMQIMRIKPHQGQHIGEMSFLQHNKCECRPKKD
Procedure Summary: SPR (ProteOn XPR36), D-VEGF immobilized
# kon listing for each entry below
Could you write the number and then its unit?

Consider the worked cases shown below.
E01 (recombinant, His-tagged) (designed binder) MKIEEHHHHHHHHHHGGSTYKLILNGKTLKGETTTEAVDVYDAFDVFFVYAASNFSDFDDWTYDDATKTFTVTEGGSDK :: 338000 M⁻¹ s⁻¹
E01-D39F (designed binder) MKIEEHHHHHHHHHHGGSTYKLILNGKTLKGETTTEAVDVYDAFDVFFVYAASNFSFFDDWTYDDATKTFTVTEGGSDK :: 380000 M⁻¹ s⁻¹
E01-D39F/S35G (designed binder) MKIEEHHHHHHHHHHGGSTYKLILNGKTLKGETTTEAVDVYDAFDVFFVYAAGNFSFFDDWTYDDATKTFTVTEGGSDK :: 358000 M⁻¹ s⁻¹
E01-D39F/S35R (designed binder) MKIEEHHHHHHHHHHGGSTYKLILNGKTLKGETTTEAVDVYDAFDVFFVYAARNFSFFDDWTYDDATKTFTVTEGGSDK :: 341000 M⁻¹ s⁻¹
E01-D39F/D27E (designed binder) MKIEEHHHHHHHHHHGGSTYKLILNGKTLKGETTTEAVDVYDAFEVFFVYAASNFSFFDDWTYDDATKTFTVTEGGSDK :: 511000 M⁻¹ s⁻¹
E01-D39F/S38G (designed binder) MKIEEHHHHHHHHHHGGSTYKLILNGKTLKGETTTEAVDVYDAFDVFFVYAASNFGFFDDWTYDDATKTFTVTEGGSDK :: 463000 M⁻¹ s⁻¹
E01-D39F/V31A (designed binder) MKIEEHHHHHHHHHHGGSTYKLILNGKTLKGETTTEAVDVYDAFDVFFAYAASNFSFFDDWTYDDATKTFTVTEGGSDK :: 558000 M⁻¹ s⁻¹
E01-D39F/F40I (designed binder) MKIEEHHHHHHHHHHGGSTYKLILNGKTLKGETTTEAVDVYDAFDVFFVYAASNFSFIDDWTYDDATKTFTVTEGGSDK :: 602000 M⁻¹ s⁻¹
E01-D39F/S35E (designed binder) MKIEEHHHHHHHHHHGGSTYKLILNGKTLKGETTTEAVDVYDAFDVFFVYAAENFSFFDDWTYDDATKTFTVTEGGSDK :: 454000 M⁻¹ s⁻¹
E01-D39F/V22L (designed binder) MKIEEHHHHHHHHHHGGSTYKLILNGKTLKGETTTEAVDLYDAFDVFFVYAASNFSFFDDWTYDDATKTFTVTEGGSDK :: 719000 M⁻¹ s⁻¹

Challenge: So what's the measured kon for this one? E01-D39F/A34S (designed binder) MKIEEHHHHHHHHHHGGSTYKLILNGKTLKGETTTEAVDVYDAFDVFFVYASSNFSFFDDWTYDDATKTFTVTEGGSDK
Response given: 387000 M⁻¹ s⁻¹
